# Activity values compiled below
# Test system: K562
# assay-explanation: Cytotoxicity against human K562 cells assessed as reduction in cell viability measured after 72 hrs by colorimetric assay
# Format: cell-based
# condition-notes: k562, 72 h

Known results for molecules:
>>> print(df.to_string())
                         chemical_structure  meas_value
0  CC(C)=C/C=C/P(=O)(OCOC(=O)C(C)(C)C)OCOC(=O)C(C)(C)C    > 100 µM
1  C/C(=C\CCP(=O)(OCOC(=O)C(C)(C)C)OCOC(=O)C(C)(C)C)CO    > 100 µM

# evaluate next
# molecule CC(=O)OC/C(C)=C/C=C/P(=O)(OCOC(=O)C(C)(C)C)OCOC(=O)C(C)(C)C ; its Activity = > 100 µM

* * *

# assay-explanation: Stability of compound in human plasma assessed as parent compound remaining at 100 uM measured after 2 hrs by LC-MS analysis
# Type: ADME, cell-free
# condition-notes: read-out: Stability
observation-type: remaining at 2 h, 100 µM (%)
Please state the figure in %; there is no need to write the unit.

# compound CC(C)=C/C=C/P(=O)(Oc1ccccc1)Oc1ccccc1 ; its remaining at 2 h, 100 µM = 89

# compound CC(C)=C/C=C/P(=O)(OCOC(=O)C(C)(C)C)Oc1ccccc1 (stereo not given) ; its remaining at 2 h, 100 µM = 48

# compound CC(C)=C/C=C/P(=O)(OCOC(=O)C(C)(C)C)OCOC(=O)C(C)(C)C ; its remaining at 2 h, 100 µM = 6

# compound COC(=O)[C@H](C)NP(=O)(/C=C/C=C(C)C)Oc1ccccc1 (stereo not given in full) ; its remaining at 2 h, 100 µM = 69

# compound COP(=O)(/C=C/C=C(C)C)OCOC(=O)C(C)(C)C (stereo not given) ; its remaining at 2 h, 100 µM = 62

* * *

# assay-explanation: Drug metabolism in human K562 cells assessed as free phosphonic diacid metabolite formation at 100 uM incubated for 1 hr by LC-MS analysis
# Type: ADME, cell-based
# condition-notes: k562, 1 h
observation-type: Drug metabolism

>>> df
                                   molecule  observation_type           meas_value
0  CC(=O)OC/C(C)=C/C=C/P(=O)(OCOC(=O)C(C)(C)C)OCOC(=O)C(C)(C)C   Drug metabolism  Metabolite_Detected
1  CC(C)=C/C=C/P(=O)(OCOC(=O)C(C)(C)C)Oc1ccccc1 (centres undefined)   Drug metabolism  Metabolite_Detected
2  CC(C)=C/C=C/P(=O)(OCOC(=O)C(C)(C)C)OCOC(=O)C(C)(C)C   Drug metabolism  Metabolite_Detected
3  COC(=O)[C@H](C)NP(=O)(/C=C/C=C(C)C)Oc1ccccc1 (some centres undefined)   Drug metabolism  Metabolite_Detected

* * *

# assay-explanation: Stability of compound in human plasma assessed as parent compound remaining at 100 uM measured after 24 hrs by LC-MS analysis
# Assay type: ADME, cell-free
# condition-notes: read-out: Stability
observation-type: remaining at 24 h, 100 µM (%)
Please state the figure in %; there is no need to write the unit.

Known results for molecules:
In [3]: df
Out[3]:
                                   molecule  meas_value
0     CC(C)=C/C=C/P(=O)(Oc1ccccc1)Oc1ccccc1          73
1  COC(=O)[C@H](C)NP(=O)(/C=C/C=C(C)C)Oc1ccccc1 (some centres undefined)          63
2  CC(C)=C/C=C/P(=O)(OCOC(=O)C(C)(C)C)Oc1ccccc1 (centres undefined)          16

# evaluate next
# molecule COP(=O)(/C=C/C=C(C)C)OCOC(=O)C(C)(C)C (centres undefined) ; its remaining at 24 h, 100 µM = 4

* * *

# EC50 values compiled below
# assay-explanation: Induction of IFN-gamma production in human Vgamma9Vdelta2-T cells incubated for 15 mins with compound-loaded K562 cells followed by compound washout and measured after 20 hrs by ELISA
# Assay type: functional, cell-based
# condition-notes: Vgamma9Vdelta2 T cell

Known results for compounds:
In [3]: df
Out[3]:
                                   compound  observation_type  meas_value
0  CC(=O)OC/C(C)=C/C=C/P(=O)(OCOC(=O)C(C)(C)C)OCOC(=O)C(C)(C)C              EC50    > 100 µM
1  CC(C)=C/C=C/P(=O)(OCOC(=O)C(C)(C)C)OCOC(=O)C(C)(C)C              EC50    > 100 µM
2  C/C(=C\CCP(=O)(OCOC(=O)C(C)(C)C)OCOC(=O)C(C)(C)C)CO              EC50    0.043 µM
3  CC(C)=C/C=C/P(=O)(OCOC(=O)C(C)(C)C)Oc1ccccc1 (stereo unspecified)              EC50    > 100 µM

# compound COC(=O)[C@H](C)NP(=O)(/C=C/C=C(C)C)Oc1ccccc1 (stereo partly specified) ; its EC50 = > 100 µM

# compound COP(=O)(/C=C/C=C(C)C)OCOC(=O)C(C)(C)C (stereo unspecified) ; its EC50 = 98 µM

* * *

# Test system: K562
# assay-explanation: Cytotoxicity against human K562 cells assessed as reduction in cell viability measured after 72 hrs by colorimetric assay
# Type: cell-based
# condition-notes: k562, 72 h
# Activity values compiled below

                                   compound  observation_type  meas_value
0                   C/C(=C\C=C\P(=O)(O)O)CO          Activity    > 100 µM
1  COC(=O)[C@H](C)NP(=O)(/C=C/C=C(C)C)Oc1ccccc1 (stereo partly specified)          Activity    > 100 µM
2  CC(C)=C/C=C/P(=O)(OCOC(=O)C(C)(C)C)Oc1ccccc1 (stereo unspecified)          Activity      100 µM
3     CC(C)=C/C=C/P(=O)(Oc1ccccc1)Oc1ccccc1          Activity    > 100 µM
4  COP(=O)(/C=C/C=C(C)C)OCOC(=O)C(C)(C)C (stereo unspecified)          Activity       20 µM

# evaluate next
# compound CC(C)=C/C=C/P(=O)([O-])[O-].[Na+].[Na+] ; its Activity = > 100 µM
